# Test system: Ramos
# assay-remarks: CellTiter-Glo cell viability assay
# Format: cell-based
# assay-context: 72 hours, cell survival
Field: pEC50. Provide a value for each of the molecules that follow.
One number for each entry, as −log10 of the molar value.

{"molecule": "CCN1CCN(Cc2ccc(NC(=O)c3ccc(C)c(NC(=O)c4cncc(-c5cnoc5)c4)c3)cc2C(F)(F)F)CC1 [I-8]", "numeric-readout": 6.48}

Switching to the query record.
Sure, the documented pEC50 for CCN1CCN(Cc2ccc(NC(=O)c3ccc(C)c(NC(=O)c4cncc(-c5cnn(C)c5)c4)c3)cc2C(F)(F)F)CC1 [I-9] is 5.13

* * *

# System: OCI-Ly19
# assay-remarks: CellTiter-Glo cell viability assay
# Assay type: cell-based
# assay-context: 72 hours, cell survival
endpoint: pEC50
One number for each entry, as −log10 of the molar value.

{"molecule": "CCN1CCN(Cc2ccc(NC(=O)c3ccc(C)c(NC(=O)c4cncc(-c5cnoc5)c4)c3)cc2C(F)(F)F)CC1 [I-8]", "pEC50": 7.25}

For CCN1CCN(Cc2ccc(NC(=O)c3ccc(C)c(NC(=O)c4cncc(-c5cnn(C)c5)c4)c3)cc2C(F)(F)F)CC1 [I-9] the molecule record lists pEC50 as 5.58
